biological target: T1, human ROR1-Fz (Homo sapiens, UniProt Q01973); experiment: Biacore off-rate and kinetic analysis, ROR1-Fz; format: binding; details: Table 11; SP34 light chain
T1 construct: Frizzled (Fz, residues 165-305); His6 (C); purchased Acro Biosystems; host or cells: HEK293
T1 sequence (Q01973 165-305): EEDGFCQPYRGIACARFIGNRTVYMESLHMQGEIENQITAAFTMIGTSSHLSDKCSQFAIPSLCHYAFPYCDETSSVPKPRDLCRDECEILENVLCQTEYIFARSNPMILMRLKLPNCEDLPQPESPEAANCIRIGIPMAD
Measure Name: Biacore human ROR1-Fz ka (M⁻¹ s⁻¹)
State the answer as a number, implicitly in M⁻¹ s⁻¹.

Example entries begin here.
molecule="SRP2196-A03 (antibody, V domains shown) VH: EVQLVESGGGLVQPGGSLRLSCAASGFNITQYHIHWVRQAPGKGLEWVGYISPNSGSTHEADSVKGRFTISADTSKNTAYLQMNSLRAEDTAVYYCARDSRRYVRGWDYWGQGTLVTVSS VL: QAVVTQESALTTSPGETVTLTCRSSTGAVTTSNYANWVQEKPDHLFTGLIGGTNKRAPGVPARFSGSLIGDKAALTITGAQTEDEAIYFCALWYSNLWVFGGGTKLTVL" quantitative_readout=169000
molecule="SRP2196-B11 (antibody, V domains shown) VH: EVQLVESGGGLVQPGGSLRLSCAASGFNITGYYIHWVRQAPGRGLEWVGQISPNSGYTYYADSVKGRFTISADTSKNTAYLQMNSLRAEDTAVYYCARDSRRYIRSWDYWGQGTLVTVSS VL: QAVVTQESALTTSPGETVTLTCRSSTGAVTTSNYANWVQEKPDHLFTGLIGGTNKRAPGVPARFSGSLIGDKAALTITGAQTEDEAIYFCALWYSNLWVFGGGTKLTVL" quantitative_readout=137000

Continue with the molecule presented below.
Record SRP2196-A04 (antibody, V domains shown) VH: EVQLVESGGGLVQPGGSLRLSCAASGFNISPYYIHWVRQAPGKGLEWVGQIYPISGHTYQADSVKGRFTISADTSKNTAYLQMNSLRAEDTAVYYCARESRRYVGPFGYWGQGTLVTVSS VL: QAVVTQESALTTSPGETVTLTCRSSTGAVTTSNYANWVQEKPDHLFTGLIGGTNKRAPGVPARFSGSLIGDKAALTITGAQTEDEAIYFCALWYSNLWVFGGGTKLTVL . Reported Biacore human ROR1-Fz ka: 139000
